target: HIV-1 Env of isolate ZM214 (clade C pseudovirus) (HIV-1); experiment: cell-based or functional assay
TEST READOUT: IC50 (neutralization, TZM-bl pseudovirus assay)

## Task Which IC50 (neutralization, TZM-bl pseudovirus assay) value belongs to 1503_H05 (PG16) (TCN-119) (antibody, V domains shown) VH: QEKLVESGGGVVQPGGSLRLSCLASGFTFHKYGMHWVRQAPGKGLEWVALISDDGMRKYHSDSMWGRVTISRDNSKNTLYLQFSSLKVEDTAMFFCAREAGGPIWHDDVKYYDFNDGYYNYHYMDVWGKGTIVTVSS VL: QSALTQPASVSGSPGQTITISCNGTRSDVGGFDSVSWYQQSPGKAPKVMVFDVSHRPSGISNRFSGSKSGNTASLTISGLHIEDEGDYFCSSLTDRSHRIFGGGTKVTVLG ?
## Result > 25 µg/mL
